Parameter pKi, tested on 5-HT1DA-Clone (Homo sapiens, UniProt P28221), listed per item.
Sequence (P28221 whole entry): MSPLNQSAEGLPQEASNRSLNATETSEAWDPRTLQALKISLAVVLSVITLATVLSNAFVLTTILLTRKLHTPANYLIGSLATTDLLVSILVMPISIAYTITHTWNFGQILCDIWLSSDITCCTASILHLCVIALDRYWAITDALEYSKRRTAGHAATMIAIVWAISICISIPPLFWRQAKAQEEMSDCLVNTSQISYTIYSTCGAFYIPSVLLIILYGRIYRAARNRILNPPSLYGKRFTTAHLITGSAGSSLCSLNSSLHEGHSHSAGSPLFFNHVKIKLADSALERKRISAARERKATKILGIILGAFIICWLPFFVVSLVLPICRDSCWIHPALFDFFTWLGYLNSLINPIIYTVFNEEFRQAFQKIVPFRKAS
Interpret pKi as the negative base-10 log of the concentration measured in mol/L.

Task: Lookup: pKi / 5-HT1DA-Clone (Homo sapiens, UniProt P28221) / CCCN(CCC)C1Cc2cccc3c2n(c(=O)n3OC)C1 (racemic) [Ex. 4 Racemate]
Result: 7.82

Task: Lookup: pKi / 5-HT1DA-Clone (Homo sapiens, UniProt P28221) / CCCN(CCC)[C@@H]1Cc2cccc3c2n(c(=O)n3OC)C1 [Ex. 4 R-Enantiomer]
Result: 7.42
